test target: BRAF D594G (Homo sapiens, UniProt P15056, D594G)
Construct: Horizon Discovery (HCT-116 BRAF−/− cells); host or cells: HCT-116 BRAF−/− cells, clone 63, lentiviral transduction
Sequence (P15056 whole entry D594G): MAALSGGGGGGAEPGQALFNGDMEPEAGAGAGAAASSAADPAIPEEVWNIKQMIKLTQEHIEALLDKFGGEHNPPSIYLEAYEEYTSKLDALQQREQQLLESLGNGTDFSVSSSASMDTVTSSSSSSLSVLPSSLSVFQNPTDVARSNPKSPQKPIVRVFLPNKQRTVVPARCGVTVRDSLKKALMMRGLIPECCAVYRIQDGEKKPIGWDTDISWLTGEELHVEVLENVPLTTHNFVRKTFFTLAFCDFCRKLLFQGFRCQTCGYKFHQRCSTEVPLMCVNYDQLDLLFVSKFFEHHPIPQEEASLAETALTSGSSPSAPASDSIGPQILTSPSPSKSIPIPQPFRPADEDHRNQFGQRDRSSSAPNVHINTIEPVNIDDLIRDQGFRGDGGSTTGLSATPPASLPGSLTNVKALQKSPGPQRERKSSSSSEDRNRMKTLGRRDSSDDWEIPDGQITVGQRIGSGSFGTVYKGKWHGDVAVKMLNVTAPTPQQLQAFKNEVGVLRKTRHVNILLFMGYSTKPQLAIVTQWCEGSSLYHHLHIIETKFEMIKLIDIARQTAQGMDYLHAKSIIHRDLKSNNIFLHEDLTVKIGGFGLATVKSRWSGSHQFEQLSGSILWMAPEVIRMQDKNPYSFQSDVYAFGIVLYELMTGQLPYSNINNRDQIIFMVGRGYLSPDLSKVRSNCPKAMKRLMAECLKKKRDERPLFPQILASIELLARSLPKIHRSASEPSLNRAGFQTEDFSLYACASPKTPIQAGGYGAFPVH
experiment description: BRAF HiBiT degradation assay, C-terminal HiBiT-tagged BRAF D594G overexpressed in HCT-116 BRAF−/− cells (clone 63), Nano-Glo HiBiT Lytic assay
Assay type: cell-based
details: BRAF D594G; DC50 at 50%: fitted conc. at Y=50
Method: An A375 cell line expressing a homozygous V600E mutation was purchased from ATCC (Manassas, VA, USA). […] HiBiT signal was measured by a Nano-Glo HiBiT Lytic assay (Promega cat. no. N3050). […] Luminesce units (LU) were read on an EnVision plate reader 2105 (Perkin Elmer). Percent protein remaining and viability remaining per sample were calculated as follows: […]
# DC50 per record follows

molecule	DC50
CCCS(=O)(=O)Nc1cccc(-c2nc(C(C)(C)C)sc2-c2ccnc(Nc3cnn(CC4CCN(C(=O)[C@@H]5CCN(c6ccc(C7CCC(=O)NC7=O)cn6)C5)CC4)c3)n2)c1F (mixture of isomers)	> 500 nM
CCCS(=O)(=O)Nc1cccc(-c2nc(C(C)(C)C)sc2-c2ccnc(Nc3ccc(N4CCN(C(=O)CC5CCN(c6ccc(NC7CCC(=O)NC7=O)cc6)CC5)CC4)c(F)c3)n2)c1F (racemic)	50 to 500 nM
CCCS(=O)(=O)Nc1cccc(-c2cn(C3CCN(C(=O)C4CCN(CC5CCN(c6ccc(C7CCC(=O)NC7=O)cn6)CC5)CC4)CC3)nc2-c2ccncc2)c1F (racemic)	> 500 nM
CCCS(=O)(=O)Nc1cccc(-c2nc(C(C)(C)C)sc2-c2ccnc(Nc3ccc(N4CCN(C(=O)C5CCN(c6ccc(C7CCC(=O)NC7=O)cc6)CC5)CC4)cc3)n2)c1F (racemic)	> 500 nM
CCCS(=O)(=O)Nc1cccc(-c2cn(-c3ccc(N4CCN(CC5CCN(c6ccc(C7CCC(=O)NC7=O)cn6)CC5)CC4)nc3)nc2-c2ccncc2)c1F (racemic)	10 to 50 nM
CCN(C)S(=O)(=O)Nc1cccc(-c2nc(C)sc2-c2ccnc(Nc3ccc(N4CCN(CC5CCN(c6ccc([C@H]7CCC(=O)NC7=O)cc6)CC5)CC4)cn3)n2)c1F	10 to 50 nM
CCCS(=O)(=O)Nc1cccc(-c2nc(-c3ccc(C4CCN(C(=O)CC5CCN(c6ccc(C7CCC(=O)NC7=O)cn6)CC5)CC4)cc3)sc2-c2ccnc(N)n2)c1F (racemic)	> 500 nM
CCCS(=O)(=O)Nc1cccc(-c2nc(C(C)(C)C)sc2-c2ccnc(Nc3ccc(N4CCN(C(=O)CC5(O)CCN(c6ccc(NC7CCC(=O)NC7=O)cc6F)CC5)CC4)c(F)c3)n2)c1F (racemic)	> 500 nM
CCCS(=O)(=O)Nc1cccc(-c2nc(C3CCN(C(=O)CN4CCC5(CC4)CN(c4ccc6c(c4)C(=O)N(C4CCC(=O)NC4=O)C6=O)C5)CC3)sc2-c2ccnc(NC)n2)c1F (racemic)	> 500 nM
CCCS(=O)(=O)Nc1cccc(-c2nc(-c3ccc(N4CCN(CC5CCN(c6ccc(C7CCC(=O)NC7=O)cn6)CC5)CC4)cc3)sc2-c2ccnc(N)n2)c1F (racemic)	< 10 nM

====

test target: BRAF G466V (Homo sapiens, UniProt P15056, G466V)
Construct: Horizon Discovery (HCT-116 BRAF−/− cells); host or cells: HCT-116 BRAF−/− cells, clone 8, lentiviral transduction
Sequence (P15056 whole entry G466V): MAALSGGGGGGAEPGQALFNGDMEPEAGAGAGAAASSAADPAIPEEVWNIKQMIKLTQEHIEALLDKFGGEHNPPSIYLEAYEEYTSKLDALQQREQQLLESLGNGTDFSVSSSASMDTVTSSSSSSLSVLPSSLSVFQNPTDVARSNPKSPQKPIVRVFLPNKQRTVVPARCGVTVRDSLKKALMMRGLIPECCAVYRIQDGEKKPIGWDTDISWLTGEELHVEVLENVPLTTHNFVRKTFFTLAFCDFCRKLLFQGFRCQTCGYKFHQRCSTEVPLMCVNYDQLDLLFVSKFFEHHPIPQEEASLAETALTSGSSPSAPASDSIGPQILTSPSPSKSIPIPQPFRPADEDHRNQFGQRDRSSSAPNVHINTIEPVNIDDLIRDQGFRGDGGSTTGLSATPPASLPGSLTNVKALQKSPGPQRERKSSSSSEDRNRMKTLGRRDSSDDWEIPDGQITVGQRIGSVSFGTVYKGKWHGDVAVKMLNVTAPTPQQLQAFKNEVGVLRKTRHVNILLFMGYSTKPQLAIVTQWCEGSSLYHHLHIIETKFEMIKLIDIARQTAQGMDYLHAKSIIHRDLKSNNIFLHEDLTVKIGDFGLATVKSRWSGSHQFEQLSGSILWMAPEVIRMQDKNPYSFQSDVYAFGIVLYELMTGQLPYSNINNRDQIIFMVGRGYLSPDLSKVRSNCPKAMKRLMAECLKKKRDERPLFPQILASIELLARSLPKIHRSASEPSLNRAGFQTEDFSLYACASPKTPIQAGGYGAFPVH
experiment description: BRAF HiBiT degradation assay, C-terminal HiBiT-tagged BRAF G466V overexpressed in HCT-116 BRAF−/− cells (clone 8), Nano-Glo HiBiT Lytic assay
Format: cell-based
details: BRAF G466V; DC50 at 50%: fitted conc. at Y=50
Measured DC50 of individual entries

molecule	DC50
CCCS(=O)(=O)Nc1cccc(-c2nc(C(C)(C)C)sc2-c2ccnc(Nc3cnn(CC4CCN(CC5CCN(c6ccc7c(=O)n(C8CCC(=O)NC8=O)ccc7c6)CC5)CC4)c3)n2)c1F (racemic)	50 to 500 nM
CCCS(=O)(=O)Nc1cccc(-c2nc(C(C)(C)C)sc2-c2ccnc(Nc3cnn(CC4CCN(C(=O)C[C@H]5CCN(c6ccc(C7CCC(=O)NC7=O)cc6)C5)CC4)c3)n2)c1F (mixture of isomers)	50 to 500 nM
CCCS(=O)(=O)Nc1cccc(-c2nc(C(C)(C)C)sc2-c2ccnc(Nc3ccc4c(c3)CCN(C(=O)CN3CCC(c5ccc(NC6CCC(=O)NC6=O)cc5)CC3)C4)n2)c1F (racemic)	> 500 nM
CCCS(=O)(=O)Nc1cccc(-c2cn(C3CCN(C(=O)C4(C)CCN(C(=O)C5CCN(c6ccc(C7CCC(=O)NC7=O)cn6)CC5)CC4)CC3)nc2-c2ccncc2)c1F (racemic)	> 500 nM
CCCS(=O)(=O)Nc1cccc(-c2nc(C(C)(C)C)sc2-c2ccnc(NC3CC4(CCN(C(=O)CN5CCC(c6ccc(NC7CCC(=O)NC7=O)cc6)CC5)CC4)C3)n2)c1F (racemic)	> 500 nM
CCCS(=O)(=O)Nc1cccc(-c2nc(C(C)(C)C)sc2-c2ccnc(Nc3cnn(CC4CCN(C(=O)CN5CCc6cc(C7CCC(=O)NC7=O)ccc6C5)CC4)c3)n2)c1F (racemic)	> 500 nM
CCCS(=O)(=O)Nc1cccc(-c2nc(C(C)(C)C)sc2-c2ccnc(Nc3cnn(C4CCN(CC[C@H]5CCN(c6ccc(C7CCC(=O)NC7=O)cn6)C5)CC4)c3)n2)c1F (mixture of isomers)	> 500 nM
CCCS(=O)(=O)Nc1cccc(-c2nc(C3CCN(C(=O)C4CCN(CC5CCN(c6ccc([C@H]7CCC(=O)NC7=O)cc6)CC5)CC4)CC3)sc2-c2ccnc(NC)n2)c1F	> 500 nM
CCCS(=O)(=O)Nc1cccc(-c2nc(C3CCN(C(=O)C4(C)CCN(C(=O)C5CCN(c6ccc(C7CCC(=O)NC7=O)cc6)CC5)CC4)CC3)sc2-c2ccnc(NC(C)C)n2)c1F (racemic)	> 500 nM
CCCS(=O)(=O)Nc1cccc(-c2nc(C(C)(C)C)sc2-c2ccnc(Nc3cnn(CC4CCN(C(=O)[C@@H]5CCN(c6ccc(C7CCC(=O)NC7=O)cn6)C5)CC4)c3)n2)c1F (mixture of isomers)	> 500 nM
CCCS(=O)(=O)Nc1cccc(-c2nc(C(C)(C)C)sc2-c2ccnc(Nc3ccc(N4CCN(C(=O)CC5CCN(c6ccc(C7CCC(=O)NC7=O)cn6)CC5)CC4)c(F)c3)n2)c1F (racemic)	> 500 nM
CCN(C)S(=O)(=O)Nc1cccc(-c2nc(C(C)(C)C)sc2-c2ccnc(Nc3ccc(N4CCN(C(=O)[C@H]5CC[C@H](CN6CCc7cc(C8CCC(=O)NC8=O)ccc7C6)CC5)CC4)cn3)n2)c1F (mixture of isomers)	> 500 nM
CCCS(=O)(=O)Nc1cccc(-c2nc(C3CCN(C(=O)C4CCN(C(=O)C5CCN(c6ccc(C7CCC(=O)NC7=O)cn6)CC5)CC4)CC3)sc2-c2ccnc(NC(C)C)n2)c1F (racemic)	10 to 50 nM
CCCS(=O)(=O)Nc1cccc(-c2nc(C3CCN(C(=O)C4CCN(C(=O)C5CCN(c6ccc(C7CCC(=O)NC7=O)cn6)CC5)CC4)CC3)sc2-c2ccncc2)c1F (racemic)	< 10 nM
CCCS(=O)(=O)Nc1cccc(-c2nc(C(C)(C)C)sc2-c2ccnc(Nc3ccc(C4CCN(CC5CCN(c6ccc(C7CCC(=O)NC7=O)cc6)CC5)CC4)cc3)n2)c1F (racemic)	> 500 nM
CCCS(=O)(=O)Nc1cccc(-c2nc(C(C)(C)C)sc2-c2ccnc(Nc3cccc(OC4CCN(C(=O)C[C@@H]5CCN(c6ccc(C7CCC(=O)NC7=O)cc6)C5)CC4)c3)n2)c1F (mixture of isomers)	> 500 nM
CCN(C)S(=O)(=O)Nc1cccc(-c2nc(C)sc2-c2ccnc(Nc3ccc(N4CCN(CC5(F)CCN(c6ccc(C7CCC(=O)NC7=O)cc6)CC5)CC4)cn3)n2)c1F (racemic)	< 10 nM
CCCS(=O)(=O)Nc1cccc(-c2nc(C3CCN(CC4CCN(C(=O)[C@H]5CC[C@H](Oc6ccc(C7CCC(=O)NC7=O)cc6)CC5)CC4)CC3)sc2-c2ccnc(N)n2)c1F (mixture of isomers)	> 500 nM
CCCS(=O)(=O)Nc1cccc(-c2nc(-c3ccc(C4CCN(CC5CCN(c6ccc(C7CCC(=O)NC7=O)cn6)CC5)CC4)cc3)sc2-c2ccnc(N)n2)c1F (racemic)	> 500 nM
